Measured values drawn from a melting point compilation (Tetko et al.; mined from patent text by program, amines drawn as free bases though some values may be those of a salt) for this set.

REPORTED_ENDPOINT: melting point

Guide cases for melting point, answers given:
CC(Cc1c[nH]c2ccccc12)(NC(=O)OC1C2CC3CC(C2)CC1C3)C(=O)NC1(C(=O)O)CCCCC1 (stereo not given)
203 to 208 °C
Cn1cc(-c2ccccc2)c(=O)c(-c2ccc(Cl)c(C(F)(F)F)c2)c1
154 to 155 °C
COC(=O)c1cc(C2CCCO2)c(C(F)(F)F)cc1N (stereo not given)
131 to 136 °C
CCCc1c(CO)ncn1S(=O)(=O)N(C)C
86 to 88 °C
COC(=O)Cc1cc2c(cc1CC1NCCc3cc(OC)c(OC)cc31)OCO2 (stereo not given)
99 to 101 °C

Fill in the blank: the reported melting point of CC(=O)NNc1ccnc2c(NC(=O)c3c(Cl)cccc3Cl)ccc(Cl)c12 is ____. 158 to 161 °C

Fill in the blank: the reported melting point of Cc1nnc2ccc(-c3ccc(F)cc3)nn12 is ____. 227 to 229 °C

Fill in the blank: the reported melting point of COC(=O)C1=C(C(=O)N(C(=O)CCl)c2cc(OC)c(Cl)cc2F)CCCC1 is ____. 109 °C

Fill in the blank: the reported melting point of CCCCCCCCCCS(=O)(=O)NC(=O)c1cnc(C(N)=O)c(OC)c1 is ____. 145 °C

Fill in the blank: the reported melting point of COc1cc(C=CC(=O)c2ccc(I)cc2O)cc(OC)c1OC is ____. 140 to 141 °C

###

Reported melting point values are given for each entry in this list.

Guide cases for melting point, answers given:
CCOC(=O)c1nn(-c2ccc(F)cc2)c2c1CCCC2
100 to 101 °C
CCc1cc(O)n2ncc(CC)c2n1
> 310 °C
Nc1ccc(S(=O)(=O)Nc2cc(Cl)nc(C(F)(F)F)c2)cc1
179 to 181 °C
COc1ccccc1N1CCN(CCCOc2ccc(-c3nnco3)cc2)CC1
139 to 140 °C
CC1CCCCN1CCCNC(=O)c1ccccc1C(c1ccc(O)cc1)c1ccc(O)cc1 (configuration not stated)
118 to 120 °C
COc1cc(Nc2c(C#N)cnc3cc(-c4ccc(CN(CCO)CCO)o4)ccc23)c(Cl)cc1Cl
155 to 160 °C
O=C(NC[C@H]1CC[C@@H](Oc2ccc(F)cc2)CC1)c1ccc(O)cc1
170 °C
COc1cccc2c1CN(c1c(F)cc3c(=O)c(C(=O)O)cn(-c4ccc(F)cc4F)c3c1F)C2
262 to 271 °C
O=C1CCCN1C1=CC(CF)(CF)Oc2ccc(C(F)(F)C(F)(F)F)cc21
104 to 105 °C
O=C(O)[C@@H](CC(=O)N1CCN(CC(F)(F)F)CC1)Cc1ccccc1
96 to 98 °C

Fill in the blank: the reported melting point of COc1ccc(Nc2nccc(-c3cccs3)n2)cc1 is ____. 158 to 160 °C

Fill in the blank: the reported melting point of CCOC(=O)C1=C(C)NC(=S)N(S(=O)(=O)c2ccccc2)C1c1cccc([N+](=O)[O-])c1 (configuration not stated) is ____. 162 to 164 °C

###

Reported melting point values are given for each entry in this list.

Guide cases for melting point, answers given:
Cc1cc(C)cc(CC(=O)c2ccncc2)c1
96 to 97 °C
Cc1ccc(=S)n(-c2cccc(C(F)(F)F)c2)c1
96 °C
CCOc1cc([C@@H](CCN(C=O)OC(C)=O)N2Cc3cccc(NC(=O)C(C)C)c3C2=O)ccc1OC
72 to 74 °C
Nc1c(I)cc(Cl)cc1[N+](=O)[O-]
134 to 135 °C
Clc1ccc(OCc2ccc(Cl)s2)cc1
48 to 49 °C
COC(=O)c1cc(OC)c(C(=O)O)cc1OC
123 to 124 °C
O=S(=O)(c1ccc(Cl)c2ccccc12)N1CC2CCC(CC2)C1
134 to 137 °C
COc1ccccc1C1(O)C(O)CC(c2ccccc2)(c2ccccc2)C2CN(C(=O)Cc3ccccc3OCc3ccccc3)CC21 (stereo not given)
158 °C
COCCN(C)C1CCN(c2ccc(N)cc2C#N)CC1
88 °C
COc1ccccc1Sc1ccc2c(c1)CCC1N(C)C(=O)CCC21C (single isomer, unassigned; (+))
166 to 168 °C

Fill in the blank: the reported melting point of COCCOCOc1ccccc1N1C(C(C)(C)C)ONC1(Br)C(C)(C)C (stereo not given) is ____. 89 to 91 °C

Fill in the blank: the reported melting point of Cn1c(=O)cc(CCc2ccc(Cl)s2)c2cc(C(N)(c3ccc(Cl)cc3)c3cccnc3)ccc21 (stereo not given) is ____. 100 °C

Fill in the blank: the reported melting point of Cc1cc(-c2noc(CO)n2)ccc1Br is ____. 111 to 112 °C

Fill in the blank: the reported melting point of O=C(O)COC1=C(Cc2ccc3ccccc3c2)C(=O)CCC1 is ____. 170 to 171 °C

Fill in the blank: the reported melting point of CCOC(=O)C1N=C(c2ccccc2)c2cc([N+](=O)[O-])ccc2NC1=O (stereo not given) is ____. 271 °C

Fill in the blank: the reported melting point of CC1(C)SC(c2ccccc2O)NC1C(=O)O (stereo not given) is ____. 179 to 181 °C

Fill in the blank: the reported melting point of COc1ccc2cc(C(C)NC(=O)NO)ccc2c1 (stereo not given) is ____. 174 to 176 °C

Fill in the blank: the reported melting point of CCC1(Cc2ncn(C(c3ccccc3)(c3ccccc3)c3ccccc3)c2C)CCc2c(C)c3ccccc3n2C1=O (stereo not given) is ____. 83 to 98 °C

Fill in the blank: the reported melting point of CCc1ccc(NC2=CC3=NCN(C)C3=CC2(F)C(=O)OC)c(F)c1 (stereo not given) is ____. 238 °C

Fill in the blank: the reported melting point of Cc1c(OCc2ccc(F)cc2)cnn(C(C)(C)C)c1=O is ____. 65 to 66.5 °C

###

Reported melting point values are given for each entry in this list.

Guide cases for melting point, answers given:
N=C(NO)c1ccc(-c2ccc(O)c(-c3nc4cc(C(=N)NO)ccc4[nH]3)c2)cc1
319 to 322 °C
C=CCC1(Cc2ncn(C(c3ccccc3)(c3ccccc3)c3ccccc3)c2C)CCc2c(C)c3ccccc3n2C1=O (centres undefined)
83 to 85 °C

Fill in the blank: the reported melting point of CCOC(=O)C1=C(C)NC(N)=C(C(=O)OCC)C1c1ccccc1OC (centres undefined) is ____. 170 °C

Fill in the blank: the reported melting point of O=C(O)CCN1CCN(C2=Nc3ccccc3Sc3ccc(Cl)cc32)CC1 is ____. 120 to 121 °C

Fill in the blank: the reported melting point of CC(C)(CO)NC(=O)c1nn(-c2c(F)cc(F)cc2F)c2c1C1CCC2C1 (centres undefined) is ____. 122 to 125 °C

Fill in the blank: the reported melting point of COc1ccc2nccc(CCC[C@@H]3CCN(CCCc4ccccc4F)C[C@@H]3C(=O)O)c2c1 is ____. 194 °C

Fill in the blank: the reported melting point of Nc1n[nH]c2cc(C(=O)C=NO)ccc12 is ____. 199 to 201 °C

Fill in the blank: the reported melting point of COc1ccc2[nH]c(S(=O)Cc3cc(N(C)C)c(F)cn3)nc2c1 (centres undefined) is ____. 99 to 102 °C

Fill in the blank: the reported melting point of CC(C)c1c(O)cc(/C=C/c2ccccc2)cc1O is ____. 140 to 142 °C

###

Reported melting point values are given for each entry in this list.

Guide cases for melting point, answers given:
Cc1ccc(C2OC(=O)N(C(=O)NN3CCOCC3)C2C)cc1 (stereo unspecified)
124 to 125 °C
COC(=O)N(N=C(C)C)C(=O)c1ccc(Br)cc1
103 to 104 °C
NC(=O)c1ccc(F)c2c1CC(N(CCCCc1c[nH]c3ccc(F)cc13)C1CCC1)CO2 (stereo unspecified)
122 °C

Fill in the blank: the reported melting point of CCc1nc(CCc2ccc(NC(=O)/C=C/c3cnn(CC)c3-c3ccc(F)cc3)cc2)cs1 is ____. 190 to 191 °C

Fill in the blank: the reported melting point of Cc1ccc(S(=O)(=O)OCCCCCn2c3c(c4ccccc4c2=O)C(=O)c2ccccc2-3)cc1 is ____. 163 to 165 °C

Fill in the blank: the reported melting point of O=C1CN(Cc2cccc(I)c2)S(=O)(=O)N1 is ____. 101 to 103 °C

Fill in the blank: the reported melting point of O=C1Nc2cc3c(cc2OC1CCCBr)CCCC3 (stereo unspecified) is ____. 139 to 140 °C

Fill in the blank: the reported melting point of CCc1cc2c(s1)N=C(NNC(=O)NC)CN=C2c1ccccc1Cl is ____. 213 to 215 °C

Fill in the blank: the reported melting point of COc1ccc(C#CCCCCCCC#CCO)cc1OC is ____. 39 to 41 °C
